# Experimental Target: Protein-tyrosine kinase 6 (Homo sapiens, UniProt Q13882); note: in the data inactive means no Kd found up to 30 µM
# Sequence (Q13882 whole entry): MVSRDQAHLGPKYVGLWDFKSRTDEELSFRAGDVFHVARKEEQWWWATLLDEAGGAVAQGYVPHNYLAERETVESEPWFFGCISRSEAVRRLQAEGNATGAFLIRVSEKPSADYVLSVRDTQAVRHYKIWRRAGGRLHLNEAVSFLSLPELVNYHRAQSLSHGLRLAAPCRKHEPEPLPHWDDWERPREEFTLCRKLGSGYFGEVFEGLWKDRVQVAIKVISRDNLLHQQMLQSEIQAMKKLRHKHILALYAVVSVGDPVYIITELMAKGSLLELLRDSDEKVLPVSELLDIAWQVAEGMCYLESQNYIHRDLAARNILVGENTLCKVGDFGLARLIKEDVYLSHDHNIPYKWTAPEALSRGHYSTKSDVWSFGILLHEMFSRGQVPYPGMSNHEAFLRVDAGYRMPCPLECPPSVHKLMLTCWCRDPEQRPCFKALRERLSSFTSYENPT
Activity calls are given as the source filed them.
Respond with a class label; see active, inactive

CNC(=O)CN1CCC(Oc2cc3c(Nc4cccc(Cl)c4F)ncnc3cc2OC)CC1    active

Ask | Outcome? `CCN1CCN(Cc2ccc(-c3cc4c(N[C@H](C)c5ccccc5)ncnc4[nH]3)cc2)CC1`
Reply | inactive

Ask | Outcome? `COc1cc2nccc(Oc3ccc(NC(=O)Nc4cc(C)on4)c(Cl)c3)c2cc1OC`
Reply | active

Ask | Outcome? Cc1cc2c(F)c(Oc3ncnn4cc(OC[C@@H](C)OC(=O)[C@H](C)N)c(C)c34)ccc2[nH]1 [BRIVANIB ALANINATE]
Reply | inactive

Ask | Outcome? `CC(C)Nc1cc(-c2c[nH]c(C(=O)N[C@H](CO)c3cccc(Cl)c3)c2)c(Cl)cn1`
Reply | inactive

Ask | Outcome? `Cc1ccc(NC(=O)c2ccc(CN3CC[C@H](N(C)C)C3)c(C(F)(F)F)c2)cc1Nc1nccc(-c2cncnc2)n1`
Reply | inactive

Ask | Outcome? `Cc1c(F)cc(C(=O)NC2CC2)cc1-c1ccc(C(=O)NCC(C)(C)C)cn1`
Reply | inactive

Ask | Outcome? `CNC(=O)c1cc(Oc2ccc(NC(=O)Nc3ccc(Cl)c(C(F)(F)F)c3)c(F)c2)ccn1`
Reply | inactive
